Please go through the items and note down their zone of inhibition at 100 µg/mL.
Tested on: Escherichia coli
Assay Remarks: Antimicrobial activity against Escherichia coli ATCC 25922 at 100 ug/ml after 24 to 48 hr by agar diffusion method
Format: functional
Stated Conditions: read-out: DIZ
Answers are plain numbers, in mm.

Determine its reported zone of inhibition at 100 µg/mL: "CCOc1c(/C=N\NC(=O)c2ccncc2)cccc1CN(C)C"
20

Determine its reported zone of inhibition at 100 µg/mL: "CCOc1c(/C=N\NC(=O)c2ccncc2)cccc1CN1CCNCC1"
33

Determine its reported zone of inhibition at 100 µg/mL: "CCCCN(CCCC)Cc1cccc(/C=N\NC(=O)c2ccncc2)c1OCC"
24

Determine its reported zone of inhibition at 100 µg/mL: "CCOc1c(/C=N\NC(=O)c2ccncc2)cccc1CN(c1ccccc1)c1ccccc1"
32

Determine its reported zone of inhibition at 100 µg/mL: "CCOc1c(/C=N\NC(=O)c2ccncc2)cccc1CN1CCCCC1"
25

Next:
Determine its reported zone of inhibition at 100 µg/mL: "CCCN(CCC)Cc1cccc(/C=N\NC(=O)c2ccncc2)c1OCC"
22
